Biological target: A156T mutant of the HCV NS3/4A 1b protease enzyme (Hepatitis C virus genotype 1b, UniProt P26663, A1182T)
Construct: 10× stocks of NS3/4A protease enzyme from Bioenza (Mountain View, Calif.); purchased Bioenza (Mountain View, Calif.)
Assay: HCV Protease FRET Assay (IC50_APP), A156T mutant
Assay type: biochemical
Details: apparent IC50, A156T mutant; read-out: IC50_APP, HCV A156T
pIC50: −log10 of the molar value.
measure: pIC50

As a guide, the following entries are already answered.
[[record]]
smiles_representation = "C=C[C@@H]1C[C@]1(NC(=O)[C@@H]1C[C@@H](Oc2nccc3ccccc23)CN1C(=O)[C@H](CCC(=O)C=C(C)C)NC(=O)OC(C)(C)C)C(=O)NS(=O)(=O)C1CC1"
measure = "pIC50"
result = "6.00 to 7.00"

[[record]]
smiles_representation = "C=CC(=O)N(C)C[C@H](NC(=O)OC(C)(C)C)C(=O)N1C[C@H](Oc2cc(-c3ccccc3)nc3cc(OC)ccc23)C[C@H]1C(=O)N[C@]1(C(=O)NS(=O)(=O)C2CC2)C[C@H]1C=C"
measure = "pIC50"
result = "6.00 to 7.00"

[[record]]
smiles_representation = "C=C[C@@H]1C[C@]1(NC(=O)[C@@H]1C[C@@H](Oc2cc(-c3ccccc3)nc3cc(OC)ccc23)CN1C(=O)[C@H](CCC(=O)N[C@@H]1C(=O)O[C@@H]1C)NC(=O)OC(C)(C)C)C(=O)NS(=O)(=O)C1CC1"
measure = "pIC50"
result = "> 8.00"

[[record]]
smiles_representation = "C=CC(=O)NC[C@H](NC(=O)OC(C)(C)C)C(=O)N1C[C@H](Oc2cc(-c3ccccc3)nc3cc(OC)ccc23)C[C@H]1C(=O)N[C@]1(C(=O)NS(=O)(=O)c2ccccc2)C[C@H]1C=C"
measure = "pIC50"
result = "5.00 to 6.00"


Then there is this compound:
INPUT: pIC50 for C=CC(=O)N[C@H](C)C(=O)N1C[C@H](Oc2cc(-c3ccccc3)nc3cc(OC)ccc23)C[C@H]1C(=O)N[C@]1(C(=O)NS(=O)(=O)C2CC2)C[C@H]1C=C ?
OUTPUT: 7.00 to 8.00

The reported numbers originate from patent US8309685B2.
